# target: T1, mfPRLR.mmh (soluble monomeric macaca fascicularis PRLR) (macaca fascicularis)
# T1 construct: soluble monomeric construct; also called macaca fascicularis (mf) PRLR.mmh
# T1 chain: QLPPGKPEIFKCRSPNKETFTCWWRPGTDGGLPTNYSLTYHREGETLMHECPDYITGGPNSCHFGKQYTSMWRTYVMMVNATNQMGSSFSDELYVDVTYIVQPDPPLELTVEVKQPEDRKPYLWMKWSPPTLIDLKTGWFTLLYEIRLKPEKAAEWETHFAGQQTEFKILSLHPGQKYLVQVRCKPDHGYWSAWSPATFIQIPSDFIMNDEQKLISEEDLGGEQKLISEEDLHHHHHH
# test.method.notes: SPR, 37C, mAb capture
test.readout: T½ (min)
Value expressed in min; do not type the unit.

Solved cases below.
{"columns": ["binder", "unit.of.measure", "T½"],
 "data": [
  ["H1H6762P (antibody, human IgG1, V domains shown, human IgG1 Fc (H1H)) VH: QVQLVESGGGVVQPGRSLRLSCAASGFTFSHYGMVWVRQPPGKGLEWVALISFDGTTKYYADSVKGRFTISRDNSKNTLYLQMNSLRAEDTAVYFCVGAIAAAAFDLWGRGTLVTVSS VL: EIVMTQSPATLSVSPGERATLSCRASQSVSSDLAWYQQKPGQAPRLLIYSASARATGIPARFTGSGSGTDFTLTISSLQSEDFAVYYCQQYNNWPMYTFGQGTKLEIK", "min", 21],
  ["H1H6781P (antibody, human IgG1, V domains shown, human IgG1 Fc (H1H)) VH: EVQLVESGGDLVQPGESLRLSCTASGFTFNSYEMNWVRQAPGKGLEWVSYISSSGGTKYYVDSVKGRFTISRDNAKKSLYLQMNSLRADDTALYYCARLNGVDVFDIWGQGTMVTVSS VL: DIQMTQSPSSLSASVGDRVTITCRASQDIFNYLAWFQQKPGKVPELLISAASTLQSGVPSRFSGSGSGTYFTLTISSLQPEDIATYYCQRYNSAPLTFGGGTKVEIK", "min", 43],
  ["H1H6960N (antibody, human IgG1, V domains shown, also called H2M6960N) VH: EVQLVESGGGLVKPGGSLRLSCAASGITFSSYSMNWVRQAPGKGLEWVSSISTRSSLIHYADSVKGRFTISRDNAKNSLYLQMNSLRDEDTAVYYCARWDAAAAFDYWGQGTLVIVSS VL: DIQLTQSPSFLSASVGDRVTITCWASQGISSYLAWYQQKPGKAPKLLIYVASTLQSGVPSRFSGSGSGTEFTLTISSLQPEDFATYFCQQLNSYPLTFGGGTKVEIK", "min", 9],
  ["H1H6774P (antibody, human IgG1, V domains shown, human IgG1 Fc (H1H)) VH: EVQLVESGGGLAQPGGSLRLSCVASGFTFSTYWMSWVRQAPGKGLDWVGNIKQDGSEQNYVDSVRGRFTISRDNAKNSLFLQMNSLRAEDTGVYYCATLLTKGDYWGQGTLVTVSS VL: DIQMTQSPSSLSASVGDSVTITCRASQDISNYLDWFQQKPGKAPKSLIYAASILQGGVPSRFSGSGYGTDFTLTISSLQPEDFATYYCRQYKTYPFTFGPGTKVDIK", "min", 3]
]}

Quick check: T½ of H1H6782P (antibody, human IgG1, V domains shown, human IgG1 Fc (H1H)) VH: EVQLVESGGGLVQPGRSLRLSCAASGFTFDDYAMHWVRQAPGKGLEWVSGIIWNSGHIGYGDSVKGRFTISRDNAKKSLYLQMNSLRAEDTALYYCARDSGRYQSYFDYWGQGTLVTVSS VL: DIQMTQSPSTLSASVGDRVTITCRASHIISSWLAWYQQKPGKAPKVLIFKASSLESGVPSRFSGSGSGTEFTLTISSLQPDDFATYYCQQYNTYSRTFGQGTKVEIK ? 15
